Origin of values: paper PMC8312697

biological target: NTCP (Homo sapiens, UniProt Q14973); construct: HEK293 (ubrogepant, MK-3207); test: NTCP uptake transporter inhibition assay; details: taurocholate uptake; read-out: NTCP estimated IC50
Sequence (Q14973 whole entry): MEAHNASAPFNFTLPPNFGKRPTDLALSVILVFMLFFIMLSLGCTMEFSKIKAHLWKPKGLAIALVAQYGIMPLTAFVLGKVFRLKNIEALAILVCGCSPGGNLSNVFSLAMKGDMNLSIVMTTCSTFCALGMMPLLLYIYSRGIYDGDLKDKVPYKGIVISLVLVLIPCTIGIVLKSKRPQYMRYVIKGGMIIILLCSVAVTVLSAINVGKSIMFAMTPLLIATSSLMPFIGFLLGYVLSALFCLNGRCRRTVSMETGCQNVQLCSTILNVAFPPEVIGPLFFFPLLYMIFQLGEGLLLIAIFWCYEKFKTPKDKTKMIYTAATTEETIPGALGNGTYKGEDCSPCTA
pIC50: −log10 of the molar value.
measurement label: pIC50

>>> result("O=C(N[C@@H]1CC[C@@H](c2cccc(F)c2F)CN(CC(F)(F)F)C1=O)N1CCC(n2c(=O)[nH]c3ncccc32)CC1 [Telcagepant]")
4.71

* * *

biological target: MRP3 (Homo sapiens); construct: Solvo Biotechnology (Szeged, Hungary), contract laboratory that ran the assay; experiment: MRP3 vesicular transport inhibition assay; type: biochemical; details: human, membrane vesicles with MRP3 (vesicular transport assay); 70 µM (solubility limit); read-out: maximum inhibition at the highest concentration tested, MRP3
Sequence (O15438 whole entry): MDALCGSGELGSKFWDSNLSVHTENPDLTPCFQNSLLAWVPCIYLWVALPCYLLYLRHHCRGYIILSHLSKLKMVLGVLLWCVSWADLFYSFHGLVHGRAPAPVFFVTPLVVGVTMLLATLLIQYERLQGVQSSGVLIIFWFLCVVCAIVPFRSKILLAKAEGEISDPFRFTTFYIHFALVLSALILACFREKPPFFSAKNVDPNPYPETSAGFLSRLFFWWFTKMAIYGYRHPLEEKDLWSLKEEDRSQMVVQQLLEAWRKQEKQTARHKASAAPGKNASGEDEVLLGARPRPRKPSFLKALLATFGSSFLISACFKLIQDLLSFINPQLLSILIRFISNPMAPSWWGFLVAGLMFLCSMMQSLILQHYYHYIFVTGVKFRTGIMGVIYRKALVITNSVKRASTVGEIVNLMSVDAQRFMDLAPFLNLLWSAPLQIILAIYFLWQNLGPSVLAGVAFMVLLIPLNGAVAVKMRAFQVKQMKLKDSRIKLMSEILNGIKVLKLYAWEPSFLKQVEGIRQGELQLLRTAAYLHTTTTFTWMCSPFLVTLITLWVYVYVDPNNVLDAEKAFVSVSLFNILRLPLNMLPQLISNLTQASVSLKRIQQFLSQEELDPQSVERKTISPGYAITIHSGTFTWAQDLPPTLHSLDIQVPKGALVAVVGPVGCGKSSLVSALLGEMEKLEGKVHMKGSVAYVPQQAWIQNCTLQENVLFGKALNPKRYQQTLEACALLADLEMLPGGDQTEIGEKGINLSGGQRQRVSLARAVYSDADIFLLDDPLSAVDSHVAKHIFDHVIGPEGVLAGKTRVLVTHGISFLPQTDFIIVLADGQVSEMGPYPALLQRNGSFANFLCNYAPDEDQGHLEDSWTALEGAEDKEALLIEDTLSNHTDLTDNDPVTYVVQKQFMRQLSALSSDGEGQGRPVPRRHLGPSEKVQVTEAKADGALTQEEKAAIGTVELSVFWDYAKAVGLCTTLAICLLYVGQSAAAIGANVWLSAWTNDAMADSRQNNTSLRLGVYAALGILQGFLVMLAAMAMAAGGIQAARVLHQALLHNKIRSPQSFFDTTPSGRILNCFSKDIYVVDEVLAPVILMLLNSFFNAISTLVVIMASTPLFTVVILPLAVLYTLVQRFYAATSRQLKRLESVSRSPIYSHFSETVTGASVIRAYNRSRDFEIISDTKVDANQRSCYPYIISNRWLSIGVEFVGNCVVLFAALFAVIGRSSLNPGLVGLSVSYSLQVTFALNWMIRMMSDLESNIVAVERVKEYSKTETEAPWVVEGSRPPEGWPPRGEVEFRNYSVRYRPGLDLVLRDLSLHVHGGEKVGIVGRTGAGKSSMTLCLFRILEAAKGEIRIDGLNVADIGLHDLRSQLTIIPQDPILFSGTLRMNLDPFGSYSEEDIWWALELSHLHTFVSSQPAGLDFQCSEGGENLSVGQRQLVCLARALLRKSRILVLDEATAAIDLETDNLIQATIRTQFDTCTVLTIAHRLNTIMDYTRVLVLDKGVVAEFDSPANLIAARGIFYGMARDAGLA
measurement label: inhibition at 70 µM

>>> result("C[C@@H]1[C@H](c2ccccc2)C[C@H](NC(=O)c2cnc3c(c2)C[C@@]2(C3)C(=O)Nc3ncccc32)C(=O)N1CC(F)(F)F")
"< 50%"
